biological target: HLA-B*18:01; assay: IEDB peptide-MHC binding, purified MHC/direct/fluorescence; filed as Kd, often an IC50 or EC50 that approximates it; bounds were set here for any values at or beyond the usual limits of such assays; settings: source organism: Mycobacterium tuberculosis
observationType: Kd

Which measured Kd value corresponds to "SIYYTLVRM" ?
≥ 20 µM

---

target: HLA-A*02:01; assay: IEDB peptide-MHC binding, purified MHC/direct/fluorescence; filed as Kd, often an IC50 or EC50 that approximates it; bounds were set here for any values at or beyond the usual limits of such assays; conditions: source organism: Francisella tularensis subsp. holarctica LVS
observationType: Kd

# get_value(readout='Kd', item= "REIGDISYL" )
≥ 20 µM
